// reported Ret per item
# Species on record: Rattus norvegicus
# Assay: Open TG-GATES - Regimen: Daily Repeat
# Assay type: toxicity, organism-based, Sprague-Dawley
# Set-up: regimen Daily Repeat, gender Male, age 6 weeks
# Applied conditions: in vivo, po, 1000 mg/kg, […], tissue Blood, route gavage, dose level High, time 14 day
Field: numeric (%). Do not append units.

Some molecules with recorded Ret:
Smi	Numeric readout
CNC(=C[N+](=O)[O-])NCCSCc1ccc(CN(C)C)o1	4.3
Cc1nnc2n1-c1ccc(Cl)cc1C(c1ccccc1Cl)=NC2	5.3
COC(=O)C1=C(C)NC(C)=C(C(=O)OC)C1c1ccccc1[N+](=O)[O-]	5.8

Task item: I am curious: what Ret value has been reported for `O=C(OC[C@H]1O[C@@H](OC(=O)c2cc(O)c(O)c(OC(=O)c3cc(O)c(O)c(O)c3)c2)[C@H](OC(=O)c2cc(O)c(O)c(OC(=O)c3cc(O)c(O)c(O)c3)c2)[C@@H](OC(=O)c2cc(O)c(O)c(OC(=O)c3cc(O)c(O)c(O)c3)c2)[C@@H]1OC(=O)c1cc(O)c(O)c(OC(=O)c2cc(O)c(O)c(O)c2)c1)c1cc(O)c(O)c(OC(=O)c2cc(O)c(O)c(O)c2)c1` ?
Reply: 4.7

Task item: Same lookup for `CN/C(=N/CCSCc1nc[nH]c1C)NC#N` , please.
Reply: 4.3
